# protocol: NCI Yeast Anticancer Drug Screen. Data for the mlh1 rad18 strain (AID 175)
# study.conditions: S. cerevisiae mlh1 rad18 strain growth inhibition; at 5.0 µM (retest, dose inferred, filed as 0.5); stronger effect = higher value
The panel holds about 79,000 compounds, 15% with a hit somewhere; the sample as a whole holds those more often.
Each item that follows carries a reported growth inhibition.
metric: growth inhibition (%)

[[record]]
molecule = "CCN(CC)c1ccc(N=Nc2ccc(-c3nc4ccc[n+](C)c4s3)cc2)cc1"
metric = "growth inhibition"
result_number = 99

[[record]]
molecule = "O=C(O)c1ccc2c(O)c3ccccc3c(O)c2c1"
metric = "growth inhibition"
result_number = 5

[[record]]
molecule = "OC(CN1CCc2ccccc2C1)c1ccc2ccccc2c1 (configuration not stated)"
metric = "growth inhibition"
result_number = 25

[[record]]
molecule = "C=Nc1ccc2ccccc2c1Cc1c(O)ccc2ccccc12"
metric = "growth inhibition"
result_number = 11

[[record]]
molecule = "O=[N+]([O-])/C(C(Cl)=C(Cl)Cl)=C(/Nc1ccccc1)SCc1ccccc1"
metric = "growth inhibition"
result_number = 38

[[record]]
molecule = "CN1C(=S)C(=N)OC1c1ccccc1F (configuration not stated)"
metric = "growth inhibition"
result_number = -13

[[record]]
molecule = "CCOC(=O)C1SC(=Nc2cccc(Cl)c2C)N=C1C (configuration not stated)"
metric = "growth inhibition"
result_number = 38

[[record]]
molecule = "Clc1cc(Cl)c(OCCOCCI)c(Cl)c1"
metric = "growth inhibition"
result_number = -3

[[record]]
molecule = "Cc1ccc(C2(O)c3ccccc3-c3ccccc32)cc1"
metric = "growth inhibition"
result_number = -4

[[record]]
molecule = "Cc1ncn(-c2ccccc2O)c1C"
metric = "growth inhibition"
result_number = -9

[[record]]
molecule = "O=c1c(SSc2coc3ccccc3c2=O)coc2ccccc12"
metric = "growth inhibition"
result_number = 17

[[record]]
molecule = "O=C1C(Cl)=C(Cl)C(=C2C(Cl)=C(Cl)C(=O)C(Cl)=C2Cl)C(Cl)=C1Cl"
metric = "growth inhibition"
result_number = 97


====

Let's look at some molecules and their measured growth inhibition.
# protocol: NCI Yeast Anticancer Drug Screen. Data for the mlh1 rad18 strain (AID 175)
# study.conditions: S. cerevisiae mlh1 rad18 strain growth inhibition; at 5.0 µM (retest, dose inferred, filed as 0.5); stronger effect = higher value
This is part of a sample that, as a whole, favours compounds with a hit. Of some 79,000 tested, about 15% had one in any assay.
metric: growth inhibition (%)

[[record]]
molecule = "CC(CO)CCC(=O)C(C)C1C(=O)CC2CC3CC(O)CCC3(C)CC21C (stereo unspecified)"
result_number = 16

[[record]]
molecule = "CCC1CCC2C3CC=C4CC(OC(C)=O)C(N)CC4(C)C3CCC12C (stereo unspecified)"
result_number = 12

[[record]]
molecule = "CC12CCC3c4cc(O)ccc4CCC3C1CCC2O (stereo unspecified)"
result_number = 4

[[record]]
molecule = "CN1CCCN(C)C1c1cc([N+](=O)[O-])ccc1O"
result_number = 7

[[record]]
molecule = "O=[N+]([O-])c1ccc(NS(=O)(=O)c2ccc(Cl)c(Cl)c2Cl)c([N+](=O)[O-])c1"
result_number = 22

[[record]]
molecule = "Clc1ccc(OCC2CO2)c(Cl)c1 (stereo unspecified)"
result_number = 16

[[record]]
molecule = "COc1ccc2c(c1)CCCN2CCCCCCCN1CCCCC1"
result_number = 32

[[record]]
molecule = "COC(=O)c1ccc2ccccc2c1"
result_number = 5

[[record]]
molecule = "Cc1cc(=O)n(-c2ccc(F)cc2)n1C"
result_number = 2

[[record]]
molecule = "CCOC(=O)C12CCSC1C1(C#N)C(C#N)=CC2(N=P(c2ccccc2)(c2ccccc2)c2ccccc2)n2c(=O)n(-c3ccccc3)c(=O)n21 (stereo unspecified)"
result_number = 46

[[record]]
molecule = "Cc1ccc2nc(CC(=O)c3cccnc3)c(CC(=O)c3cccnc3)nc2c1"
result_number = 1

